Test system: ACHN renal
Experiment: NCI-60 one-dose screen, 48 h (100 = growth as untreated, 0 = no growth, -100 = all killed)
Details: 10 µM unless noted
About 83,000 compounds went through this panel and 20% of them were active in at least one assay; those are over-represented in the sample as a whole.
quantity name: growth (%)
Give bare numbers, in %.

Reference set (8 entries):
CCC(C)(CC)c1ccc(O)c(C)c1 ... 106
COC1=CC(c2ccc[nH]2)=N/C1=C\c1[nH]c(C)c(C(=O)CCCCC(=O)NC(C)(C)C)c1C ... 71.8
COc1ccccc1Nc1nnc(COc2ccc(CNC(=O)CCCC/C=C/C(C)C)cc2OC)o1 ... 95.7
C=CCN(C)C ... 105
O=P(OCCCl)(OCCCl)C(O)c1ccccc1Cl (centres undefined) ... 98.4
O=C(/C=C\c1ccc(NCc2ccc(C(=O)O)cc2)cc1)CCl ... 93.3
O=c1c2c(c3ccccc3n1-c1ccccc1)NC(=S)NC2c1ccccc1 (centres undefined) ... 96.1
O=C(Nn1cnc2ccccc21)N1CCCC1 ... 99.1

Look at each molecule and report its growth.
1. O=C(NC(=S)NNC(=S)NNc1ccccc1)c1ccccc1
2. COc1cc(C(=O)Nc2ccc(N(C)C)cc2)cc(OC)c1OC
3. CC1C(=O)CCCC1=O
4. O=C1Nc2c(c(=O)n(-c3ccccc3)c3ccccc23)C(c2ccc(Cl)cc2)N1 (centres undefined)

A:
1. 70.7
2. 93.1
3. 104
4. 102

Look at each molecule and report its growth.
1. CC(C)CSc1nc(-c2ccc(F)cc2)c(C#N)c(N2CCCCC2)n1
2. COC(=O)C1CC(=O)N(C(=O)Nc2ccc(Cl)cc2Cl)C1 (centres undefined)
3. Cc1ccc(C(=O)NN)cc1
4. COc1ccc2cnc(N)c(C#Cc3cc(C(=O)Nc4ccc(CN5CCN(C)CC5)c(C(F)(F)F)c4)cnc3C)c2c1

A:
1: 98.8; 2: 99.9; 3: 115; 4: -43.2

Look at each molecule and report its growth.
1. N#Cc1ccc(OCc2nc(N)nc(N)c2-c2ccc(Cl)c(Cl)c2)cc1
2. Cc1c(O)c(N=Nc2ccc(C(=O)O)c(O)c2)c2ccccc2c1O
3. CC([C@H]1CCC2C3CCC4C[C@@H](N)CC[C@]4(C)C3CC[C@@]21C)N(C)C (some centres undefined)
4. O=C1Nc2ccccc2/C1=C/c1cn(CC(O)Cn2cc(/C=C3\C(=O)Nc4ccccc43)c3ccccc32)c2ccccc12 (centres undefined)
5. COc1cc(OC)c(NC(=O)n2ncc3cc(Nc4ncnc5ccccc45)ccc32)cc1Cl

A:
1: 19.4; 2: 97.6; 3: 78.1; 4: -68.4; 5: 55.1

Look at each molecule and report its growth.
1. O=C(/C=C/c1c[nH]c2ccccc12)c1cc2ccccc2o1
2. CC(O)c1cc[cH-]c1.[Fe+2].c1cc[cH-]c1 (centres undefined)
3. N=C(N)c1ccc(-c2ccc(-c3cc(Cl)cc(Cl)c3)s2)cc1
4. CCOC(=O)C1=NN(c2ccccc2)C2=NC(=O)/C(=C\c3cn(-c4ccccc4)nc3-c3cc4ccccc4o3)C(=O)N12
5. COc1cc(-c2nc(/C=C3/C(=O)Nc4ccccc43)c3ccccn23)cc(OC)c1OC
6. NC(N)=Nc1ccc(/C=C2\C=Cc3ccccc32)cc1
7. O=C1OC(c2ccc(-c3ccccc3)cc2)=C/C1=C/c1c2ccccc2cc2ccccc12
8. CCCCCCCCCCC1OC(C)CC(C)O1 (centres undefined)

A:
[103, 89.8, -94.4, 94.8, 58.6, 67.8, 97.6, 97.8]

Look at each molecule and report its growth.
1. COC(=O)c1ccc2[nH]c(O)c(C(=Nc3ccc(N(C)C(=O)CN4CCN(C)CC4)cc3)c3ccc4c(c3)OCO4)c2c1
2. O=c1[nH]c(=S)[nH]c(O)c1/C=C1\C=Nc2ccccc21
3. COc1ccc2cn3c4ccc(O)cc4[nH]c(=O)c3c2c1
4. CC(O)CCC(C)[N+](=O)[O-] (centres undefined)
5. CCCOC(=O)c1c(C)n(C)c2scc[n+]12
6. COC(=O)c1cc(=O)nc(N/N=C/c2ccccc2O)s1
7. COC(=O)/C=C1/CCCCC1(C)C(=O)OC (centres undefined)
8. COC(=O)/C=C/c1cc(O)c2oc(-c3ccc(O)c(O)c3)c(C(=O)OC)c2c1

A:
8.02
82.5
28.3
109
85.8
92.3
112
30.2

Look at each molecule and report its growth.
1. COc1ccc(-c2nc(SCC(C)C)nc(Nc3ccc([N+](=O)[O-])cc3)c2C#N)cc1
2. CCCC(=O)Nc1ccccc1C(=O)O
3. O=c1[nH]c2cc(O)ccc2n2cc3c(F)cccc3c12
4. CCOP1(=O)CC(C)=C(Cl)C(P(=O)(O)O)C1 (centres undefined)
5. Cc1cc2c(-c3nc4ccccc4n3C)c(O)c(O)cc2c(O)c1-c1c(C)cc2c(-c3nc4ccccc4n3C)c(O)c(O)cc2c1O
6. O=C1c2cc([N+](=O)[O-])ccc2-c2cc(Cl)c(NC(=O)C(F)(F)F)cc21

A:
[41.7, 108, 24.5, 101, 89.1, 99.5]

Q: Form field: growth recorded for CN1CCN(Cc2ccc(NC(=O)c3cncc(C#Cc4c(N)ncc5ccc(F)cc45)c3)cc2C(F)(F)F)CC1 with ACHN renal (enter value)
A: -93.6
